Every entry's value here was drawn from ChEMBL document CHEMBL1127299.

- system-name: Peptidylglycine alpha-amidating monooxygenase (Rattus norvegicus, UniProt P14925)
- method-description: Inhibitory activity against peptidylglycine alpha-amidating monooxygenase (PAM) was determined
Non-standard residues stand in square brackets, D forms with d. Residues, ends and D or L forms follow the SMILES beside them. *: point of attachment. Hydrocinnamoyl = O=C(CCc1ccccc1)*; hCys = N[C@@H](CCS)C(=O)O; Cbz = O=C(OCc1ccccc1)*
result-type: pIC50
# pIC50 is unitless: minus log10 of the molar concentration; print number only

Study these solved cases before continuing.
[
  {
    "molecule": "O=C(N[C@@H](Cc1ccccc1)C(=O)NC(CCS)C(=O)O)c1cc2ccccc2[nH]1 (some centres not stated)",
    "test-result": 8.10
  },
  {
    "molecule": "O=C(CCc1ccccc1)N[C@@H](Cc1ccccc1)C(=O)N[C@@H](CS)C(=O)O (Hydrocinnamoyl-Phe-Cys-OH)",
    "test-result": 6.48
  },
  {
    "molecule": "O=C(N[C@@H](Cc1ccccc1)C(=O)N[C@@H](CCS)C(=O)O)OCc1ccccc1 (Cbz-Phe-[hCys]-OH)",
    "test-result": 7.74
  }
]

## Input API: value(readout= pIC50, system= Peptidylglycine alpha-amidating monooxygenase (Rattus norvegicus, UniProt P14925), query= CCC(C)CC(=O)N[C@@H](Cc1ccccc1)C(=O)N[C@@H](CCS)C(=O)O (some centres not stated) )
## Output 7.54

## Input Next up: O=C(O)CNC(=O)[C@H](Cc1ccccc1)NC(=O)[C@@H](Cc1ccc(O)cc1)NC(=O)OCc1ccccc1
## Output 5.46

## Input Another molecule to look at: CSCC[C@H](NC(=O)CCc1ccccc1)C(=O)NC(CCS)C(=O)O (some centres not stated)
## Output 7.74

## Input And CC(C)(C)OC(=O)N[C@H](Cc1ccccc1)C(=O)N[C@@H](Cc1ccccc1)C(=O)N[C@@H](CCS)C(=O)O ?
## Output 7.41

## Input Next: O=C(CCc1ccccc1)NC(CCS)C(=O)O (configuration not stated)
## Output 5.12

## Input Let us now turn to CC(C)(C)OC(=O)N[C@H](Cc1ccc(O)cc1)C(=O)N[C@@H](Cc1ccccc1)C(=O)NCC(=O)O
## Output 5.40

## Input Same question, O=C(COc1ccccc1)N[C@@H](Cc1ccccc1)C(=O)NC(CCS)C(=O)O (some centres not stated) this time
## Output 7.85

## Input Field entry: CC(C)(C)OC(=O)N[C@H](Cc1ccc(O)cc1)C(=O)N[C@@H](Cc1ccccc1)C(=O)N[C@@H](CS)C(=O)O
## Output 6.47

## Input Could you do the same for O=C(CCc1ccccc1)N[C@@H](Cc1ccccc1)C(=O)NCCCS , please?
## Output 5.80

---

- system-name: UniProt P14925
- Sequence (P14925 whole entry): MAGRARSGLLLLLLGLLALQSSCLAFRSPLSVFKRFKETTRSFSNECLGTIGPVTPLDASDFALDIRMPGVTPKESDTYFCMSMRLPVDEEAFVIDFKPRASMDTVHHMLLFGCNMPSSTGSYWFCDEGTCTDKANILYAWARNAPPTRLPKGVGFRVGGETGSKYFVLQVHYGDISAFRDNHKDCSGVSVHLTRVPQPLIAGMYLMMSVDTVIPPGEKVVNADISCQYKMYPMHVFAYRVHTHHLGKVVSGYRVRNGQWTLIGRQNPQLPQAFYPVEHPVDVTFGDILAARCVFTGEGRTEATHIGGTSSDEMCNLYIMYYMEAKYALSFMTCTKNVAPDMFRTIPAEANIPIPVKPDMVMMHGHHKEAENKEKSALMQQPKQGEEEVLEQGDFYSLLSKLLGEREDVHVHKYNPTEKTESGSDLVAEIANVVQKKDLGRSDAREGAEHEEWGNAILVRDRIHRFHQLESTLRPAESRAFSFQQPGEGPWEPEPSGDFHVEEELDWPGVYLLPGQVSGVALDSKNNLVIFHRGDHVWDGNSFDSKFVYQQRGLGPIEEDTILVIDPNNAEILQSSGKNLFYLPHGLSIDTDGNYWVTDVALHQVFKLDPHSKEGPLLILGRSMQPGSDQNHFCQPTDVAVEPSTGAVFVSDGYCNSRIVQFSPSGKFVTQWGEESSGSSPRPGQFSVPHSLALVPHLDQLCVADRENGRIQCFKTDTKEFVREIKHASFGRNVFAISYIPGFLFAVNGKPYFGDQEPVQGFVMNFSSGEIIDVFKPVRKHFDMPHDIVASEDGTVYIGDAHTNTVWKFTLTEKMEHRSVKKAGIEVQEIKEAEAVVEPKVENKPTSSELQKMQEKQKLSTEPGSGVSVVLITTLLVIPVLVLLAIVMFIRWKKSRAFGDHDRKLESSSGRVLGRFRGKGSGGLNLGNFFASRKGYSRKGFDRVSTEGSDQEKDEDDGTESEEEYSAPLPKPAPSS
- method-description: Inhibitory activity against peptidylglycine alpha-amidating monooxygenase (PAM) was determined
Non-standard residues stand in square brackets, D forms with d. Residues, ends and D or L forms follow the SMILES beside them. ξ: configuration not given here. *: point of attachment. Hydrocinnamoyl = O=C(CCc1ccccc1)*; hCys = N[C@@H](CCS)C(=O)O; Nle = CCCC[C@H](N)C(=O)O; Boc = CC(C)(C)OC(=O)*; ξhCys = NC(CCS)C(=O)O
result-type: pIC50
Please report pIC50 as the negative decimal logarithm of the molar concentration, giving only the number.

Consider the reported pIC50 for these molecules:
[
  {
    "molecule": "O=C(CCc1ccc(Cl)c(Cl)c1)N[C@@H](Cc1ccccc1)C(=O)NC(CCS)C(=O)O (stereo partly drawn)",
    "pIC50": 7.26
  },
  {
    "molecule": "CC(C)[C@H](NC(=O)CCc1ccccc1)C(=O)NC(CCS)C(=O)O (stereo partly drawn) (Hydrocinnamoyl-Val-[ξhCys]-OH)",
    "pIC50": 6.80
  },
  {
    "molecule": "CC(C)(C)OC(=O)N[C@@H](Cc1ccccc1)C(=O)N[C@@H](CCS)C(=O)O (Boc-Phe-[hCys]-OH)",
    "pIC50": 7.28
  },
  {
    "molecule": "O=C(CCc1ccccc1)N[C@@H](Cc1ccccc1)C(=O)N[C@@H](CCS)C(=O)O",
    "pIC50": 8.00
  },
  {
    "molecule": "CCCC[C@H](NC(=O)CCc1ccccc1)C(=O)NC(CCS)C(=O)O (stereo partly drawn) (Hydrocinnamoyl-[Nle]-[ξhCys]-OH)",
    "pIC50": 7.64
  }
]

## Input # lookup: pIC50 of CN(C)c1cccc2c(S(=O)(=O)N[C@H](Cc3ccc(O)cc3)C(=O)N[C@@H](Cc3ccccc3)C(=O)NCC(=O)O)cccc12
## Output 5.38

## Input Now consider O=C(CCc1ccccc1)N[C@@H](Cc1ccccc1)C(=O)N[C@H](CCS)C(=O)O .
## Output 6.21

## Input And then O=C(CCc1ccccc1)N[C@@H](Cc1ccccc1)C(=O)NC(CCS)C(=O)O (stereo partly drawn) , what is it?
## Output 7.82

## Input Same question for CC(C)C[C@H](NC(=O)CCc1ccccc1)C(=O)NC(CCS)C(=O)O (stereo partly drawn) (Hydrocinnamoyl-Leu-[ξhCys]-OH) please.
## Output 6.52

## Input Also, O=C(N[C@@H](Cc1ccccc1)C(=O)NC(CCS)C(=O)O)c1ccc2ccccc2c1 (stereo partly drawn) please.
## Output 8.00

---

- system-name: Peptidylglycine alpha-amidating monooxygenase (Rattus norvegicus, UniProt P14925)
- method-description: Inhibitory activity against peptidylglycine alpha-amidating monooxygenase (PAM) was determined
Residues, ends and D or L forms follow the SMILES beside them. *: point of attachment. Hydrocinnamoyl = O=C(CCc1ccccc1)*
List of IC50 values.

[
  {
    "compound": "C[C@H](NC(=O)[C@H](Cc1ccccc1)NC(=O)[C@@H](Cc1ccc(O)cc1)NC(=O)OC(C)(C)C)C(=O)O",
    "IC50": "> 10 µM"
  },
  {
    "compound": "O=C(O)C[C@H](NC(=O)[C@H](Cc1ccccc1)NC(=O)CCc1ccccc1)C(=O)O (Hydrocinnamoyl-Phe-Asp-OH)",
    "IC50": "> 10 µM"
  }
]

Proceeding to the next compound to report its IC50.
## Input Recorded IC50 for N[C@H](Cc1ccc(O)cc1)C(=O)N[C@@H](Cc1ccccc1)C(=O)NCC(=O)O , please?
## Output > 10 µM
